Enterococcus faecalis ATCC 29212 data, read-out MIC
property label: MIC

compound="CC[C@H](C)[C@H](NC(=O)CNC(=O)[C@@H](N)CCCCN)C(=O)N[C@H](C(=O)NCC(=O)N[C@@H](CCSC)C(=O)N[C@@H](CC(C)C)C(=O)NCC(=O)N[C@@H](CCCCN)C(=O)N[C@@H](CC(C)C)C(=O)N[C@@H](Cc1ccccc1)C(N)=O)C(C)C [KGIVGMLGKLF]" reading="> 200 µM"
compound="CC[C@H](C)[C@H](N)C(=O)N[C@H](C(=O)N[C@H](C(=O)N[C@@H](CS)C(=O)N[C@@H](CCCN=C(N)N)C(=O)N[C@@H](CCCCN)C(=O)N1CCC[C@H]1C(=O)N[C@H](C(=O)N[C@H](C(=O)N[C@@H](CS)C(=O)N[C@@H](CCCN=C(N)N)C(=O)N[C@@H](CCCCN)C(=O)N1CCC[C@H]1C(=O)N[C@H](C(=O)N[C@H](C(=O)N[C@H](C(N)=O)[C@@H](C)CC)[C@@H](C)CC)[C@@H](C)CC)[C@@H](C)CC)[C@@H](C)CC)[C@@H](C)CC)[C@@H](C)CC [IIICRKPIICRKPIII]" reading="> 64 µM"
compound="CC(C)C[C@H](NC(=O)[C@H](Cc1ccccc1)NC(=O)[C@@H]1CCCN1C(=O)[C@H](Cc1c[nH]c2ccccc12)NC(=O)[C@@H](N)Cc1c[nH]c2ccccc12)C(=O)N[C@@H](CCCN=C(N)N)C(=O)N[C@@H](CCCN=C(N)N)C(N)=O [WWPFLRR]" reading="> 128 µM"
compound="CC(C)C[C@H](NC(=O)[C@H](C)NC(=O)CNC(=O)[C@H](CO)NC(=O)[C@H](CC(C)C)NC(=O)[C@@H](NC(=O)[C@H](CCCN=C(N)N)NC(=O)CNC(=O)[C@H](C)NC(=O)[C@H](CC(C)C)NC(=O)[C@@H]1CCCN1C(=O)[C@H](CC(C)C)NC(=O)[C@@H](N)Cc1ccccc1)C(C)C)C(N)=O [FLPLAGRVLSGAL]" reading="> 168 µM"
compound="CC(C)[C@H](NC(=O)CN)C(=O)N[C@@H](CO)C(=O)NCC(=O)N[C@@H](Cc1cnc[nH]1)C(=O)NCC(=O)N[C@@H](CCC(N)=O)C(=O)N[C@@H](Cc1cnc[nH]1)C(=O)NCC(=O)N[C@H](C(=O)N[C@@H](Cc1cnc[nH]1)C(=O)NCC(=O)O)C(C)C [GVSGHGQHGVHG]" reading="> 113 µM"
compound="CC[C@H](C)[C@H](N)C(=O)N[C@@H](CC(C)C)C(=O)N[C@@H](CCCCN)C(=O)N[C@@H](CCCCN)C(=O)N[C@@H](Cc1c[nH]c2ccccc12)C(=O)N1CCC[C@H]1C(=O)N[C@@H](Cc1c[nH]c2ccccc12)C(=O)N[C@@H](Cc1c[nH]c2ccccc12)C(=O)N1CCC[C@H]1C(=O)N[C@@H](Cc1c[nH]c2ccccc12)C(=O)N[C@@H](CCCN=C(N)N)C(=O)N[C@@H](CCCN=C(N)N)C(=O)N[C@@H](CCCCN)C(N)=O [ILKKWPWWPWRRK]" reading="> 34 µM"

Ref: DBAASP
